# experimental.protocol: Tanguay_ZF_120hpf_PE_legacy: (Legacy) Oregon State University Tanguay Lab 120 Hour Post-fertilization zebrafish Assay for Pericardial Edema (AID 2283640)
Results filed as inconclusive are left out. Calls of active or inactive are those of the source. Rule for the calls: active = hit-call score of the fitted dose curve at least 0.9, where 1 is the maximum; inconclusive = response in the unintended direction; inactive = score below 0.9.
Outcome field: choose from yes = active, no = inactive

What did this assay record as the result for ClC1=C(Cl)[C@]2(Cl)[C@@H]3[C@@H](Cl)[C@H]4O[C@H]4[C@@H]3C1(Cl)C2(Cl)Cl ?
no

New cases:
# lookup: test call for C[C@]12CCC(=O)C=C1CC[C@@H]1[C@@H]2CC[C@]2(C)C(=O)CC[C@@H]12
yes

Which outcome did this test record for the molecule C=CC(=O)NCNC(=O)C=C ?
no

Which result was noted for this molecule in the test: O=NN(c1ccccc1)c1ccccc1
no

// return assay outcome for c1cc2ccc3cccc4ccc(c1)c2c34
no

Please indicate how the test categorized CCC(C)c1cc([N+](=O)[O-])cc([N+](=O)[O-])c1O (configuration not stated) .
no

Which result was noted for this molecule in the test: O=C(NC(=O)c1cc(F)c(F)cc1Cl)Nc1cc(F)ccc1N1CCC(C(=O)O)CC1
no

Hi, do you know how Oc1c(Cl)c(Cl)c(Cl)c(Cl)c1Cl came out in this test?
no

// return assay outcome for O=C(NC(=O)c1c(F)cccc1F)Nc1cc(Cl)c(OC(F)(F)C(F)F)c(Cl)c1
no

How was Nn1cnnc1 classified in this test?
no

Assay result, entry C=CC(N)=O — outcome?
no

Just curious, what result did Nc1ccc(-c2ccc(N)cc2)cc1 get here?
no

For CCCCCCOC(=O)c1ccccc1C(=O)OCCCCCC , which call appears in the assay record?
no

For this molecule, state the assay outcome: CN(C)c1nc(=O)n(C2CCCCC2)c(=O)n1C
no

====

# Read-out: C-C motif chemokine 2 (Homo sapiens)
# experimental.protocol: BSK_KF3CT_MCP1: BioMAP Diversity Plus: KF3CT Assay for Monocyte Chemoattractant Protein 1 (MCP1/CCL2) Biomarker Activity (AID 2283073)
# applied.conditions: primary human keratinocytes with fibroblasts; actives raise or lower the signal
Calls of active or inactive are those of the source. The calls were made as follows: active = hit-call score of the fitted dose curve at least 0.9, where 1 is the maximum; inactive = score below 0.9.
Log the outcome using a class from label 1 (active), label 0 (inactive)

I would be grateful if you could indicate the recorded call for Cc1cc(-c2ccc(N)c(C)c2)ccc1N .
label 0

Per the records of this test, what outcome belongs to Nn1cnnc1 ?
label 0

Could you kindly confirm the outcome this assay logged for Oc1ccc(Cl)cc1Cl ?
label 0

Record request — test call for CO/C=C(/C(=O)OC)c1ccccc1COc1cccc(C(F)(F)F)n1
label 0

I'd appreciate the recorded outcome for C[C@]12CCC(=O)C=C1CC[C@@H]1[C@@H]2CC[C@]2(C)C(=O)CC[C@@H]12 from this test.
label 0

// return assay outcome for CCSC(=O)N(CC)C1CCCCC1
label 0

====

# Read-out: adenosine kinase (ADK) gene, ADK (gene 132)
# experimental.protocol: LTEA_HepaRG_ADK: Life Technologies and Expression Analysis (LTEA) Assay for adenosine kinase (ADK) gene using HepaRG (AID 2283471)
# applied.conditions: mRNA level, 48 h; actives raise or lower the signal
Calls of active or inactive are those of the source. The calls were made as follows: active = hit-call score of the fitted dose curve at least 0.9, where 1 is the maximum; inactive = score below 0.9.
Respond only with the outcome that fits, drawn from t for active, f for inactive

Sample answers from the record:
Returns: the outcome recorded for Oc1c(Cl)c(Cl)c(Cl)c(Cl)c1Cl in this assay.
t

Short answer needed: outcome of this test for CCC(=O)O[C@H]1CC[C@H]2[C@@H]3CCC4=CC(=O)CC[C@]4(C)[C@H]3CC[C@]12C ?
f

Outcome? COS(=O)(=O)OC
f

What did the test return for Clc1ccc(C(Cl)(Cl)Cl)cc1 ?
f

Per the records of this test, what outcome belongs to c1ccc(-c2ccccc2)cc1 ?
f

Kindly consider the entry below.
Could you kindly confirm the outcome this assay logged for CCOP(=S)(OCC)SCSC(C)(C)C ?
f

====

# Read-out: Interleukin 6 (IL6), IL6 (gene 3569)
# experimental.protocol: LTEA_HepaRG_IL6: Life Technologies and Expression Analysis (LTEA) Assay for Interleukin 6 (IL6) using HepaRG (AID 2283509)
# applied.conditions: mRNA level, 48 h; actives raise or lower the signal
Calls of active or inactive are those of the source. The calls were made as follows: active = hit-call score of the fitted dose curve at least 0.9, where 1 is the maximum; inactive = score below 0.9.
Your response should consist of one outcome taken from 1 (yes) for active, 0 (no) for inactive

Test call for this compound, please: NS(=O)(=O)C(F)(F)C(F)(F)C(F)(F)C(F)(F)C(F)(F)C(F)(F)C(F)(F)C(F)(F)F
1 (yes)

// param item: O=C(N[C@H]1CN2CCC1CC2)c1cc2ccoc2cn1 ; yields the recorded call
0 (no)

Call for entry O=C(O)C(F)(F)C(F)(F)C(F)(F)C(F)(F)C(F)(F)F :
0 (no)

Each compound tested received a call. Report the one for C[C@]12CCC(=O)C=C1CC[C@@H]1[C@@H]2CC[C@]2(C)C(=O)CC[C@@H]12 .
1 (yes)

// switching to the query compound
Please share the test call associated with ClC(Cl)=C(c1ccc(Cl)cc1)c1ccc(Cl)cc1 .
0 (no)

====

# Read-out: TIMP metallopeptidase inhibitor 1 (TIMP1), TIMP1 (gene 7076)
# experimental.protocol: BSK_hDFCGF_TIMP1: BioMAP Diversity Plus: hDFCGF Assay for TIMP metallopeptidase inhibitor 1 (TIMP1) Biomarker Activity (AID 2283062)
# applied.conditions: primary human foreskin fibroblasts; actives raise or lower the signal
# Method: BSK_hDFCGF is a cell-based, multiplexed-readout assay that uses foreskin fibroblast, a human skin primary cell, with measurements taken at 24 hours after chemical dosing in a 96-well plate.BSK_hDFCGF_TIMP1 is an assay component measured in the BSK_hDFCGF assay. It measures TIMP-1 antibody related to regulation of gene expression using ELISA technology.Data from the assay component BSK_hDFCGF_TIMP1 was analyzed into 1 assay endpoint. […]
Calls of active or inactive are those of the source. How the source made its calls: active means hit-call score of the fitted dose curve at least 0.9, where 1 is the maximum; inactive means score below 0.9.
# output must be one of active, inactive

Called result for CC1=C2C[C@H]3[C@@H](CC=C4C[C@@H](O)CC[C@@]43C)[C@@H]2CC[C@]12O[C@@H]1C[C@H](C)CN[C@H]1[C@H]2C
inactive

What outcome does the record of this test show for c1ccc(-c2ccccc2)cc1 ?
inactive

---
In this assay, the call recorded for CCC(=O)O[C@H]1CC[C@H]2[C@@H]3CCC4=CC(=O)CC[C@]4(C)[C@H]3CC[C@]12C was what?
active

Per the assay record, what outcome was assigned to COS(=O)(=O)OC ?
inactive

====

# study.target: CCAAT/enhancer-binding protein beta (Homo sapiens) (UniProt P17676)
# Sequence (P17676 whole entry, looked up): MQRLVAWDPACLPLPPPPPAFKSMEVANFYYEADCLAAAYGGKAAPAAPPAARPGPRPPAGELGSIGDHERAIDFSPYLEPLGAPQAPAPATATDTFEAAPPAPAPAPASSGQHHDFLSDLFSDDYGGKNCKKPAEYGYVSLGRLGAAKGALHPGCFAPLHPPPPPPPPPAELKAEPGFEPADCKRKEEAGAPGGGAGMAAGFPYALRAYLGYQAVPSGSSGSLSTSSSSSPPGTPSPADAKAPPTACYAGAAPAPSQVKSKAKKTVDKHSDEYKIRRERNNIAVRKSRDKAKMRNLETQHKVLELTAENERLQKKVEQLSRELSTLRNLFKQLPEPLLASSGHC
# experimental.protocol: ATG_C_EBP_CIS: Attagene CIS-FACTORIAL HepG2 Assay for human CCAAT/Enhancer Binding Protein (C/EBP) beta (AID 2282927)
# applied.conditions: HepG2 Attagene cis-factorial transcription factor reporter; actives raise or lower the signal
Active and inactive are the calls of the source. The calls were made as follows: active = hit-call score of the fitted dose curve at least 0.9, where 1 is the maximum; inactive = score below 0.9.
Would you mind answering with one of these outcomes? y = active, n = inactive

Please review the following examples before continuing.
Can you look up the reported call for CCCCCCCCCc1ccc(O)cc1 for me?
n

Per the assay record, what outcome was assigned to O=C(O)C(F)(F)C(F)(F)C(F)(F)C(F)(F)C(F)(F)F ?
n

Which result was noted for this compound in the test: O=C(O)C(F)(F)C(F)(F)C(F)(F)C(F)(F)C(F)(F)C(F)(F)C(F)(F)C(F)(F)C(F)(F)F
n

---
Lab log entry: OCC(O)CO — outcome as called in the assay?
n

Check the results log: what was the call for O=C(O)C(F)(F)C(F)(F)C(F)(F)C(F)(F)C(F)(F)C(F)(F)C(F)(F)C(F)(F)F ?
n

Answer briefly: the call reported for C[C@]12CCC(=O)C=C1CC[C@@H]1[C@@H]2CC[C@@]2(C)[C@H]1CC[C@]2(C)O in this assay.
n

Fill in: this test's call for Cc1cccc(C)c1N is ___
n

What was the test verdict on CCOP(=S)(OCC)SCSC(C)(C)C ?
n

Dear all, I need the recorded test outcome for C[C@]12CCC(=O)C=C1CC[C@@H]1[C@@H]2CC[C@]2(C)C(=O)CC[C@@H]12 , thank you.
n

What was the test verdict on O=C(N[C@H]1CN2CCC1CC2)c1cc2ccoc2cn1 ?
n

Answer briefly: the call reported for Cc1cc2c3c(c1)C(c1ccccc1)=N[C@@H](NC(=O)c1ccncc1)C(=O)N3CC2 in this assay.
n

====

# experimental.protocol: BSK_4H_Eotaxin3: BioMAP Diversity Plus: 4H Assay for Eotaxin 3 Biomarker Activity (AID 2283000);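 note: CCL26 protein level quantified by ELISA in parallel with SRB cytotoxicity check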
# applied.conditions: primary human endothelial cells (HUVEC); actives raise or lower the signal
Calls of active or inactive are those of the source. How the source made its calls: active means hit-call score of the fitted dose curve at least 0.9, where 1 is the maximum; inactive means score below 0.9.
Respond using exactly one of the listed classes: active, inactive

How was C=CC(=O)NCNC(=O)C=C classified in this test?
inactive

Could you please tell me the result logged for O=S(=O)(O)C(F)(F)C(F)(F)C(F)(F)C(F)(F)C(F)(F)C(F)(F)F in this assay?
inactive

// param item: Cc1cccc([N+](=O)[O-])c1 ; yields the recorded call
inactive
